Target: recombinant full-length human prolyl endopeptidase (PREP) (Homo sapiens, UniProt P48147)
Construct: To recombinant full-length human prolyl endopeptidase (PREP, R&D-Systems, 4308-SE)
Sequence (P48147 1-710): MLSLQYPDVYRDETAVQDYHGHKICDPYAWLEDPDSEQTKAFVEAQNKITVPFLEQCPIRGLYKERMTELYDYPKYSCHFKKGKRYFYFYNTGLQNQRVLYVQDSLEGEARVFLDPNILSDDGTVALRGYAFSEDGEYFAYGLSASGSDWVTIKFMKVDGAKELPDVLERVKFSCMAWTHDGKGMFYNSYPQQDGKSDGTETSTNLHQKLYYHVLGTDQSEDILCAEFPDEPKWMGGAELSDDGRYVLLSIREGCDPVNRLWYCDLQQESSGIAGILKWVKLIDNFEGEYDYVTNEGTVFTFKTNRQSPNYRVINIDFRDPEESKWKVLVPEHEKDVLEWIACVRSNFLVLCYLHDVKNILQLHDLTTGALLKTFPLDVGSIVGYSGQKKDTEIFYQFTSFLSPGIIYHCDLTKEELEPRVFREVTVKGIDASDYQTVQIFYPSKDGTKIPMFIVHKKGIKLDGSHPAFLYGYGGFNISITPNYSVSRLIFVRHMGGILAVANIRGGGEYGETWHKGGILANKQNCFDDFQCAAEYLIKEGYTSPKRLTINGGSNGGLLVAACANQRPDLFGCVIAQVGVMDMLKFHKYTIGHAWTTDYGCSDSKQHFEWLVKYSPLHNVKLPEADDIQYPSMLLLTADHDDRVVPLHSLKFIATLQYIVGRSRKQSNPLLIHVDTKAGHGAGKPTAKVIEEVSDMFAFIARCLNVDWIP
Assay: Biochemical human prolyl endopeptidase (PREP) assay with fluorescently labelled substrate
Conditions: substrate Z-Gly-Pro-AMC 50 μM, 32° C., 60 min; some as mean values from multiple independent determinations
quantity_measured: IC50 (nM)
Answers are plain numbers, in nM.

See these solved cases before continuing.
O=C([C@@H]1CCCc2nn(Cc3ccc(Cl)nc3)c(=O)n21)N1CC(F)C(F)C1 (single isomer, unassigned) [Example 552]    6.4
O=C(C1CCc2nn(Cc3ccnc(C(F)(F)F)c3F)c(=O)n21)N1C[C@@H](F)[C@@H](F)C1 (mixture of isomers) [Example 175]    7
Cc1ccc(Cn2nc3n(c2=O)[C@H](C(=O)N2CC(F)C2)CCC3)cc1 [Example 113]    0.42
Cc1ccc(Cn2nc3n(c2=O)C(C(=O)N2CCCC2)CC(C(F)(F)F)C3)cc1 (single isomer, unassigned) [Example 226]    3.6
O=C([C@@H]1CCCc2nn(Cc3ncc(Cl)cc3F)c(=O)n21)N1CC(F)C1 [Example 407]    1.35
O=C(C1CCc2nn(Cc3ccnc(C(F)(F)F)c3F)c(=O)n21)N1CCC(F)(F)C1 (racemic) [Example 181]    24.8
Cc1ccc(Cn2nc3n(c2=O)C(C(=O)N2CCC4(C2)CC4(F)F)CCC3)cc1 (single isomer, unassigned) [Example 129]    10
Cc1ccc(Cn2nc3n(c2=O)C(C(=O)N2C[C@@H]4[C@H](C2)C4(F)F)CCC3)cc1 (mixture of isomers) [Example 117]    3.15
O=C(C1CCCc2nn(Cc3ccc(C(F)(F)F)cn3)c(=O)n21)N1CCCC1 (racemic) [Example 23]    4.95
O=C([C@@H]1CCCc2nn(Cc3ccnc(C(F)(F)F)c3F)c(=O)n21)N1CCCC1 [Example 75]    1.1

Go through the list and state IC50 for each entry.
1. O=C([C@@H]1CCCc2nn(Cc3cncc(Cl)c3)c(=O)n21)N1CC(F)C(F)C1 (mixture of isomers) [Example 548]
2. O=C([C@@H]1CCCc2nn(Cc3ccc(Cl)cn3)c(=O)n21)N1CCC(F)(F)C1 [Example 377]
3. O=C([C@@H]1CCCc2nn(Cc3ccc(F)nc3)c(=O)n21)N1CC(F)(F)C1 [Example 537]
4. O=C([C@@H]1CCCc2nn(Cc3ccc(F)c(Cl)c3)c(=O)n21)N1CC[C@H](F)C1 [Example 454]
5. Cc1ccc(Cn2nc3n(c2=O)C(C(=O)N2CCCC2C)CCC3)cc1 (racemic) [Example 162]
6. N#C[C@@H]1CCCN1C(=O)[C@@H]1CCCc2nn(Cc3ncc(Cl)cc3Cl)c(=O)n21 [Example 513]
7. COc1cccc(Cn2nc3n(c2=O)C(C(=O)N2CCCC2)CCC3)c1 (racemic) [Example 20]

Reply:
31
6.86
8.8
0.063
130
0.13
1.5

Go through the list and state IC50 for each entry.
1. COc1ccc(Cn2nc3n(c2=O)C(C(=O)N2CCCC2)CCC3)cc1C(F)(F)F (racemic) [Example 63]
2. O=C([C@@H]1CCCc2nn(Cc3ncc(Cl)cc3F)c(=O)n21)N1CCSC1 [Example 507]

Reply:
[0.74, 0.94]
